test system: TK-10; assay: minimum viability across doses, drug + dasatinib, relative to DMSO (fraction); higher = less growth inhibition; conditions: treatment: drug + dasatinib (fixed dose, not stated); 5 days
// boundary case: minimum viability across doses equal to 0.3 maps to label 0; strictly smaller maps to label 1

Answer whether the compound Cc1ccc(NC(=O)c2cccc(N(C)C)c2)cc1NC(=O)c1ccc(O)cc1 + Cc1nc(Nc2ncc(C(=O)Nc3c(C)cccc3Cl)s2)cc(N2CCN(CCO)CC2)n1 [dasatinib] has minimum viability across doses strictly less than 0.3
label 0

Given NC(=O)Nc1cc(-c2cccc(F)c2)sc1C(=O)N[C@H]1CCCNC1 [AZD7762] + Cc1nc(Nc2ncc(C(=O)Nc3c(C)cccc3Cl)s2)cc(N2CCN(CCO)CC2)n1 [dasatinib] , is recorded minimum viability across doses strictly lower than 0.3?
label 1

Please state whether minimum viability across doses is below 0.3 for Nc1nc(N)c2nc(-c3cccc(O)c3)cnc2n1 + Cc1nc(Nc2ncc(C(=O)Nc3c(C)cccc3Cl)s2)cc(N2CCN(CCO)CC2)n1 [dasatinib]
label 1

hey, is minimum viability across doses for Cc1cnc(Nc2ccc(OCCN3CCCC3)cc2)nc1Nc1cccc(S(=O)(=O)NC(C)(C)C)c1 + Cc1nc(Nc2ncc(C(=O)Nc3c(C)cccc3Cl)s2)cc(N2CCN(CCO)CC2)n1 [dasatinib] lower than 0.3 or not?
label 1

Problem: For the compound COC[C@H]1OC(=O)c2coc3c2[C@@]1(C)C1=C(C3=O)[C@@H]2CCC(=O)[C@@]2(C)C[C@@H]1OC(C)=O [Wortmannin] + Cc1nc(Nc2ncc(C(=O)Nc3c(C)cccc3Cl)s2)cc(N2CCN(CCO)CC2)n1 [dasatinib] , is minimum viability across doses under 0.3?
label 0
